tested on: Hepatotoxicity; assay: FDA HLAED, gamma-glutamyl transferase (GGT) increase; conditions: human
quantity.measured: GGT Increase - Activity Score

Field: example entries. Status: answers known.
CO/N=C(\C(=O)N[C@@H]1C(=O)N2C(C(=O)O)=CCS[C@H]12)c1csc(N)n1 :: Inactive
CN1CC[C@]23c4c5ccc(O)c4O[C@H]2C(=O)CC[C@H]3[C@H]1C5 [HYDROMORPHONE] :: Inactive
CC(C)NCC(O)COc1ccc(COCCOC(C)C)cc1 (stereo not drawn) :: Active
Cc1ncc2n1-c1ccc(Cl)cc1C(c1ccccc1F)=NC2 :: Inactive
C#CCN(C)[C@H](C)Cc1ccccc1 :: Inactive

Field GGT Increase - Activity Score (entry CCOC(=O)[C@H](CCc1ccccc1)N[C@@H](C)C(=O)N1Cc2ccccc2C[C@H]1C(=O)O ) reads Inactive

###

system: Hepatotoxicity; assay: FDA HLAED, serum glutamic oxaloacetic transaminase (SGOT) increase; conditions: human
quantity.measured: SGOT Increase - Number of Reports

Field: example entries. Status: answers known.
COc1cccc2c1C(=O)c1c(O)c3c(c(O)c1C2=O)C[C@@](O)(C(C)=O)C[C@@H]3O[C@H]1C[C@H](N)[C@H](O)[C@H](C)O1 :: < 4
CN1CCN(C2=Nc3cc(Cl)ccc3Nc3ccccc32)CC1 :: >= 4
C[C@@H]1C[C@H]2[C@H]3[C@H]([C@@H](O)C[C@]2(C)[C@@]1(O)C(=O)CO)[C@@]1(C)C=CC(=O)C=C1C[C@H]3Cl :: < 4
C=C1CC[C@@]2(O)[C@H]3Cc4ccc(O)c5c4[C@@]2(CCN3CC2CC2)[C@H]1O5 :: < 4
CCCCCCCCCC(=O)CC(=O)O[C@H]1CC[C@H]2[C@@H]3CCC4=CC(=O)CC[C@]4(C)[C@H]3CC[C@]12C [TESTOSTERONE KETOLAURATE] :: < 4
CC(C)/N=c1\cc2n(-c3ccc(Cl)cc3)c3ccccc3nc-2cc1Nc1ccc(Cl)cc1 :: < 4
Nc1ccn([C@@H]2CS[C@H](CO)O2)c(=O)n1 :: >= 4

Field SGOT Increase - Number of Reports (entry FC(F)OC(Cl)C(F)(F)F (stereo not drawn) ) reads >= 4

###

system: Hepatotoxicity; assay: FDA HLAED, serum glutamic oxaloacetic transaminase (SGOT) increase; conditions: human
quantity.measured: SGOT Increase - Activity Score

CCN(CC)CCOc1ccc(/C(=C(/Cl)c2ccccc2)c2ccccc2)cc1 :: Active
C[C@](N)(Cc1ccc(O)cc1)C(=O)O :: Inactive
Clc1ccc(CO/N=C(\Cn2ccnc2)c2ccc(Cl)cc2Cl)c(Cl)c1 :: Inactive
CC(C)NCC(O)COc1ccc(CCOCC2CC2)cc1 (stereo unspecified) :: Inactive

We next turn to a different compound, shown below.
Field SGOT Increase - Activity Score (entry CC(=O)O[C@@]12CO[C@@H]1C[C@H](O)[C@@]1(C)C(=O)[C@H](O)C3=C(C)[C@@H](OC(=O)[C@H](O)[C@@H](NC(=O)OC(C)(C)C)c4ccccc4)C[C@@](O)([C@@H](OC(=O)c4ccccc4)[C@H]21)C3(C)C.O.O.O ) reads Inactive

###

system: Hepatotoxicity; assay: FDA HLAED, alkaline phosphatase increase; conditions: human
Please go through the items and note down their Alkaline Phosphatase Increase - Index Value.
// no unit, no text: just the number

Bench note, Hepatotoxicity: entry COc1ccc2cc([C@H](C)C(=O)O)ccc2c1 , its Alkaline Phosphatase Increase - Index Value = 0.1

Bench note, Hepatotoxicity: entry CC(=O)OCC1=C(C(=O)O)N2C(=O)[C@@H](NC(=O)CSc3ccncc3)[C@H]2SC1 , its Alkaline Phosphatase Increase - Index Value = 0

Bench note, Hepatotoxicity: entry FC(F)OC(F)C(F)(F)F (configuration not stated) , its Alkaline Phosphatase Increase - Index Value = 0.3

Bench note, Hepatotoxicity: entry Nc1nc2ccc(OC(F)(F)F)cc2s1 , its Alkaline Phosphatase Increase - Index Value = 45.2

Bench note, Hepatotoxicity: entry C=C1/C(=C\C=C2/CCC[C@]3(C)[C@@H]([C@H](C)/C=C/[C@@H](O)C4CC4)CC[C@@H]23)C[C@@H](O)C[C@@H]1O , its Alkaline Phosphatase Increase - Index Value = 0

Bench note, Hepatotoxicity: entry C[C@]12CC[C@@H]3c4ccc(O)cc4CC[C@H]3[C@@H]1CC[C@@H]2O , its Alkaline Phosphatase Increase - Index Value = 1.5

Bench note, Hepatotoxicity: entry CC=CC1=C(C(=O)O)N2C(=O)[C@@H](NC(=O)[C@H](N)c3ccc(O)cc3)[C@H]2SC1 , its Alkaline Phosphatase Increase - Index Value = 0.2

Bench note, Hepatotoxicity: entry N=C(N)NCC1COC2(CCCCC2)O1 (configuration not stated) , its Alkaline Phosphatase Increase - Index Value = 0

Bench note, Hepatotoxicity: entry COc1cc2c(cc1OC)[C@@H](Cc1cc(OC)c(OC)c(OC)c1)[N+](C)(CCCOC(=O)CC/C=C/CCC(=O)OCCC[N+]1(C)CCc3cc(OC)c(OC)cc3[C@H]1Cc1cc(OC)c(OC)c(OC)c1)CC2.[Cl-].[Cl-] (some centres not stated) [MIVACURIUM CHLORIDE] , its Alkaline Phosphatase Increase - Index Value = 0

Bench note, Hepatotoxicity: entry Cc1cn([C@H]2C[C@H](N=[N+]=[N-])[C@@H](CO)O2)c(=O)[nH]c1=O , its Alkaline Phosphatase Increase - Index Value = 5.1

Bench note, Hepatotoxicity: entry CC(Cc1ccc(O)c(O)c1)C(C)Cc1ccc(O)c(O)c1 (configuration not stated) [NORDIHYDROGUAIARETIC ACID] , its Alkaline Phosphatase Increase - Index Value = 0

Bench note, Hepatotoxicity: entry Cc1cc(C2CCCCC2)n(O)c(=O)c1 , its Alkaline Phosphatase Increase - Index Value = 0

Bench note, Hepatotoxicity: entry CO[C@]12CC[C@@]3(C[C@@H]1[C@](C)(O)C(C)(C)C)[C@H]1Cc4ccc(O)c5c4[C@@]3(CCN1CC1CC1)[C@H]2O5 , its Alkaline Phosphatase Increase - Index Value = 0

Bench note, Hepatotoxicity: entry C[C@](N)(Cc1ccc(O)cc1)C(=O)O , its Alkaline Phosphatase Increase - Index Value = 0

Bench note, Hepatotoxicity: entry C[C@]12CC[C@@H]3c4ccc(O)cc4CC[C@H]3[C@@H]1CC[C@@H]2OC(=O)CCC1CCCC1 [ESTRADIOL CYPIONATE] , its Alkaline Phosphatase Increase - Index Value = 1.5

Bench note, Hepatotoxicity: entry CC(C)C[C@H]1C(=O)N2CCC[C@H]2[C@]2(O)O[C@](NC(=O)[C@@H]3C=C4c5cccc6[nH]c(Br)c(c56)C[C@H]4N(C)C3)(C(C)C)C(=O)N12 , its Alkaline Phosphatase Increase - Index Value = 0

Bench note, Hepatotoxicity: entry CN(C)c1nc(N(C)C)nc(N(C)C)n1 , its Alkaline Phosphatase Increase - Index Value = 18.3

###

Please go through the items and note down their Composite Activity - Active.
test system: Hepatotoxicity; test: FDA HLAED, liver enzyme composite activity; settings: human

Field Composite Activity - Active (entry Nc1ccc(O)c(C(=O)O)c1 [MESALAMINE] ) reads 0

Field Composite Activity - Active (entry CO[C@H]1/C=C/O[C@@]2(C)Oc3c(C)c(O)c4c(O)c(c(/C=N/N5CCN(C)CC5)c(O)c4c3C2=O)NC(=O)/C(C)=C\C=C\[C@H](C)[C@H](O)[C@@H](C)[C@@H](O)[C@@H](C)[C@H](OC(C)=O)[C@@H]1C [RIFAMPIN] ) reads 1

Field Composite Activity - Active (entry NC12CC3CC(CC(C3)C1)C2 [AMANTADINE] ) reads 0

Field Composite Activity - Active (entry Fc1ccccc1C1=NCC(=S)N(CC(F)(F)F)c2ccc(Cl)cc21 [QUAZEPAM] ) reads 0

Field Composite Activity - Active (entry CCCCCc1cc(O)c2c(c1)OC(C)(C)[C@@H]1CCC(C)=C[C@@H]21 [DRONABINOL] ) reads 0

###

system: Hepatotoxicity; assay: FDA HLAED, lactate dehydrogenase (LDH) increase; conditions: human
quantity.measured: LDH Increase - Number of Reports

O=C(O)[C@@H](S)[C@@H](S)C(=O)O :: < 4
CCOC(=O)c1ccc(C#Cc2ccc3c(c2)C(C)(C)CCS3)nc1 :: < 4
CC[C@H]1OC(=O)[C@H](C)[C@@H](O[C@H]2C[C@@](C)(OC)[C@@H](O)[C@H](C)O2)[C@H](C)[C@@H](O[C@@H]2O[C@H](C)C[C@H](N(C)C)[C@H]2O)[C@](C)(O)C[C@@H](C)[C@@H]2N[C@@H](COCCOC)O[C@H]([C@H]2C)[C@]1(C)O :: < 4
Cc1cccc(C)c1NC(=O)C(C)N (stereo not drawn) [TOCAINIDE] :: >= 4

Field LDH Increase - Number of Reports (entry COc1cc2nc(N3CCN(C(=O)C4CCCO4)CC3)nc(N)c2cc1OC (stereo not drawn) ) reads < 4

Field LDH Increase - Number of Reports (entry Nc1nc2ccc(OC(F)(F)F)cc2s1 ) reads < 4
